System: Candida
assay: Antifungal activity against Candida mycoderma after 24 hrs by two-fold serial dilution method
Format: functional
result_type: MIC (µg/mL)
Number in µg/mL, nothing else.

Request the reported MIC associated with FC(F)(F)c1cccc(N(Cc2nc3ccccc3[nH]2)Cc2ccc(Cl)cc2Cl)c1
32

Request the reported MIC associated with FC(F)(F)c1cccc(NCc2nc3ccccc3[nH]2)c1
16

Request the reported MIC associated with Fc1ccccc1N(Cc1ccc(Cl)c(Cl)c1)Cc1nc2ccccc2[nH]1
32

Request the reported MIC associated with CCCCCCCCCCN(Cc1nc2ccccc2[nH]1)c1ccc(C)cc1
128

Request the reported MIC associated with Fc1ccc(CN(Cc2nc3ccccc3[nH]2)c2cc(C(F)(F)F)cc(C(F)(F)F)c2)c(F)c1
32

====

Assignment: determine reported MIC for the given compounds.
Tested on: Saccharomyces cerevisiae
assay: Antifungal activity against Saccharomyces cerevisiae after 24 hrs by two-fold serial dilution method
Assay type: functional
Number in µg/mL, nothing else.

Request the reported MIC associated with Fc1ccccc1NCc1nc2ccccc2[nH]1
32

Request the reported MIC associated with Fc1ccc(CN(Cc2nc3ccccc3[nH]2)c2cc(C(F)(F)F)cc(C(F)(F)F)c2)c(F)c1
16

Request the reported MIC associated with Clc1ccc(NCc2nc3ccccc3[nH]2)cc1
64

Request the reported MIC associated with Cc1ccc(N(Cc2nc3ccccc3[nH]2)Cc2ccc(Cl)cc2Cl)cc1
64

Request the reported MIC associated with CCCCCCCCCCCCN(Cc1nc2ccccc2[nH]1)c1ccc(C)cc1
64

Request the reported MIC associated with Fc1ccc(CN(Cc2nc3ccccc3[nH]2)c2ccc(Cl)cc2Cl)c(F)c1
32

Request the reported MIC associated with CCCCCCCCCCCCCCCCCCN(Cc1nc2ccccc2[nH]1)c1ccc(C)cc1
64

Request the reported MIC associated with Cc1ccc(N(Cc2cccc(Cl)c2)Cc2nc3ccccc3[nH]2)cc1
64

Request the reported MIC associated with Cc1ccc(N(Cc2ccc([N+](=O)[O-])cc2)Cc2nc3ccccc3[nH]2)cc1
64

Request the reported MIC associated with Fc1ccc(N(Cc2nc3ccccc3[nH]2)Cc2ccc(Cl)cc2Cl)c(F)c1
32

====

Test system: Micrococcus luteus
assay: Antibacterial activity against Micrococcus luteus ATCC 4698 after 24 hrs by two-fold serial dilution method
Assay type: functional
test_settings: ATCC 4698, 24 h
result_type: MIC (µg/mL)
Number in µg/mL, nothing else.

Request the reported MIC associated with Fc1ccccc1NCc1nc2ccccc2[nH]1
64

Request the reported MIC associated with Fc1ccc(N(Cc2nc3ccccc3[nH]2)Cc2ccc(Cl)cc2Cl)cc1
64

Request the reported MIC associated with FC(F)(F)c1cccc(N(Cc2nc3ccccc3[nH]2)Cc2ccc(Cl)cc2Cl)c1
32

====

Assignment: determine reported MIC for the given molecules.
Test system: Pseudomonas aeruginosa
assay: Antibacterial activity against Pseudomonas aeruginosa ATCC 27853 after 24 hrs by two-fold serial dilution method
Type: functional
test_settings: ATCC 27853, 24 h
Number in µg/mL, nothing else.

Request the reported MIC associated with Cc1ccc(N(Cc2nc3ccccc3[nH]2)Cc2ccc(Cl)cc2Cl)cc1
64

Request the reported MIC associated with FC(F)(F)c1cccc(N(Cc2nc3ccccc3[nH]2)Cc2ccc(Cl)cc2Cl)c1
32

Request the reported MIC associated with CCCCCCCCCCCCCCCCCCN(Cc1nc2ccccc2[nH]1)c1ccc(C)cc1
64

Request the reported MIC associated with Cc1ccc(N(Cc2ccc(Cl)c(Cl)c2)Cc2nc3ccccc3[nH]2)cc1
128

Request the reported MIC associated with Fc1ccc(NCc2nc3ccccc3[nH]2)cc1
64

====

Tested on: Saccharomyces cerevisiae
assay: Antifungal activity against Saccharomyces cerevisiae after 24 hrs by two-fold serial dilution method
Type: functional
Assignment: determine reported MIC for the given molecules.
Number in µg/mL, nothing else.

Find MIC (Saccharomyces cerevisiae) for the entry Cc1cc(=O)oc2cc(OCCCCCCN(Cc3nc4ccccc4[nH]3)c3ccc(F)cc3)ccc12
32

Find MIC (Saccharomyces cerevisiae) for the entry Fc1ccccc1N(CCCCn1c2ccccc2c2ccccc21)Cc1nc2ccccc2[nH]1
64

Find MIC (Saccharomyces cerevisiae) for the entry Cc1ccc(N(Cc2ccc(Cl)c(Cl)c2)Cc2nc3ccccc3[nH]2)cc1
128

Find MIC (Saccharomyces cerevisiae) for the entry CCCCCCCCN(Cc1nc2ccccc2[nH]1)c1ccc(C)cc1
16

Find MIC (Saccharomyces cerevisiae) for the entry CCCCCCCCN(Cc1nc2ccccc2[nH]1)c1ccc(C)cc1.Cl.Cl
64

Find MIC (Saccharomyces cerevisiae) for the entry Cc1ccc(N(Cc2nc3ccccc3[nH]2)Cc2ccccc2Cl)cc1
64

Find MIC (Saccharomyces cerevisiae) for the entry CCCCCCN(Cc1nc2ccccc2[nH]1)c1ccc(C)cc1
64

Find MIC (Saccharomyces cerevisiae) for the entry Clc1ccc(NCc2nc3ccccc3[nH]2)c(Cl)c1
64

Find MIC (Saccharomyces cerevisiae) for the entry Cl.Cl.Fc1ccc(CN(Cc2nc3ccccc3[nH]2)c2cc(C(F)(F)F)cc(C(F)(F)F)c2)c(F)c1
8

Find MIC (Saccharomyces cerevisiae) for the entry CCCN(Cc1nc2ccccc2[nH]1)c1ccc(C)cc1
128

Find MIC (Saccharomyces cerevisiae) for the entry Fc1ccc(NCc2nc3ccccc3[nH]2)c(F)c1
32

Find MIC (Saccharomyces cerevisiae) for the entry Ic1ccc(NCc2nc3ccccc3[nH]2)cc1
64

Find MIC (Saccharomyces cerevisiae) for the entry CC(=O)c1cc2ccc(OCc3ccc(CN(Cc4nc5ccccc5[nH]4)c4ccc(C)cc4)cc3)cc2oc1=O
32

Find MIC (Saccharomyces cerevisiae) for the entry CCCCCCCCCCN(Cc1nc2ccccc2[nH]1)c1ccc(C)cc1
32

====

Assignment: determine reported MIC for the given molecules.
Tested on: Micrococcus luteus
assay: Antibacterial activity against Micrococcus luteus ATCC 4698 after 24 hrs by two-fold serial dilution method
Format: functional
test_settings: ATCC 4698, 24 h
Number in µg/mL, nothing else.

Request the reported MIC associated with Cc1ccc(N(Cc2nc3ccccc3[nH]2)Cc2ccc(F)cc2F)cc1
64

Request the reported MIC associated with Cc1ccc(N(Cc2ccc(Cl)c(Cl)c2)Cc2nc3ccccc3[nH]2)cc1
64

Request the reported MIC associated with CCCCCCN(Cc1nc2ccccc2[nH]1)c1ccc(C)cc1
64

Request the reported MIC associated with CCCCCCCCCCCCN(Cc1nc2ccccc2[nH]1)c1ccc(C)cc1
64
